pKi for Estrogen receptor (Homo sapiens, UniProt P03372) - collated from the literature.
pKi: −log10 of the molar value.
property: pKi

Prompt: What does the record list as pKi for Oc1ccc2c(c1)[C@H]1CCC[C@H]1[C@@H](c1ccccc1)O2 ?
Response: 6.57

a: O=C(CCCCCCC(=O)Nc1ccc(OS(=O)(=O)C2CC3OC2C(c2ccc(O)cc2)=C3c2ccc(O)cc2)cc1)NO (stereo not drawn)
b: CN(CCCc1ccc(Cl)cc1)c1nc(NCCc2ccc(O)cc2)nc(N2CCN(CCO)CC2)n1
c: C#C[C@]1(O)CC[C@H]2[C@@H]3CCC4=CC(=O)CCC4=C3[C@@H](c3ccc(N(C)C(C)=O)cc3)C[C@@]21C
d: Oc1ccc(CCNc2nc(NCCc3ccccc3)nc(N3CCNCC3)n2)cc1
e: CN(CCCc1ccc(Cl)cc1)c1nc(NCCc2ccc(O)cc2)nc(N2CCN(CC(=O)C(C)(C)C)CC2)n1
Prompt: Arrange the 5 compounds by rising pKi, starting with the smallest. Please write the labels in the order that was asked for.
Response: d, e, b, a, c
